Source listed as patent US20140235701.

Target: NGF (nerve growth factor) (Homo sapiens, UniProt P01138 P01138:122-241)
Sequence (P01138 122-241, one chain of several): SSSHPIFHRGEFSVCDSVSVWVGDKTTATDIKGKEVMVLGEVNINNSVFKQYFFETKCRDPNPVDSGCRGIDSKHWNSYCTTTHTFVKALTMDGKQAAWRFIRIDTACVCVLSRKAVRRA
Assay: cell_activity; neurite; TF-1 0.021
Settings: tags: R&D Systems; chain copies: 2
Endpoint name: IC50
Answer with the value and then the unit.

INSERT INTO measurements (binder, result) VALUES
  ('GGGUCCUGGCCAAGAGUUUCCGUCUCGUGGUCUGUUACCC (ssRNA, 2''-OMe G (G8,G34 2''-OH), dA, 2''-F C/U except 2''-OMe U4,C6,C10,C11,C21,U23,C26,U28,U31,C32,U35,C38-40; 5'',3'' idT) [SEQ ID NO: 78(4) (printed 76(4) in sequence list)]', '0.037 nM');

Now look at this entry.
Request: Item under review: GGGUCCUGGAUAAGAGUUUCCGUCUCGUAUCCUGUUACCC (ssRNA, as 82(25) except 2'-OMe A15) [SEQ ID NO: 82(42)] . Reported IC50?
Result: 0.037 nM
